# measurement_target: human recombinant serotonin (5-Hydroxytryptamine) 5-HT2C receptor (Homo sapiens, UniProt P28335)
# Construct: expressed in transfected cells; host or cells: Chinese hamster ovary (CHO-K1) cells
# Sequence (P28335 33-458): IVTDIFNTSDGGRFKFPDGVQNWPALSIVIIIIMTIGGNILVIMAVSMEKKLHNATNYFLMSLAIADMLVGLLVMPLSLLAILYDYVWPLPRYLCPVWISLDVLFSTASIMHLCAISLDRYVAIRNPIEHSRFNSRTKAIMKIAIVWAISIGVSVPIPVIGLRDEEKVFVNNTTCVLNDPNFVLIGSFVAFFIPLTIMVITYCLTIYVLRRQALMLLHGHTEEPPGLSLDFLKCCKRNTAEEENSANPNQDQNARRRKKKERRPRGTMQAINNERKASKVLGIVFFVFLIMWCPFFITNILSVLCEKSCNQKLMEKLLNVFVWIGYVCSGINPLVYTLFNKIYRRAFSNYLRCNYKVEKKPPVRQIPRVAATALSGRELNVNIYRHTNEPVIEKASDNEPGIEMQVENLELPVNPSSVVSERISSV
# assay_procedure: Serotonin 5-HT2C radioligand binding assay
# study_conditions: [3H]Mesulergine specific binding, read-out: Percent Inhibition of ligand binding, Serotonin (1 μM ligand concentration) 5-HT2C
Label rule, in plain words: inhibition at 1 µM of 10% and up is T, under 10% is F.

compound	label_value
Cc1ccc2c(c1)c1c(n2CC(=O)NC2CCCCC2)CN2CCC1C2 (centres unmarked) [Compound 23]	T
Cc1ccc2c(c1)c1c(n2CCc2ccccn2)CN2CCC1C2 (centres unmarked) [Compound 11]	T
Cc1ccc(/C=C/n2c3c(c4cc(C)ccc42)C2CCN(C3)C2)cc1 (centres unmarked) [Compound 10]	F

**Q:** For this compound, is measured inhibition at 1 µM 10% or higher? Cc1ccc2c(c1)c1c(n2CC(=O)N2CCNCC2)CN2CCC1C2 (centres unmarked) [Compound 24]
**A:** F

**Q:** Determine whether measured inhibition at 1 µM meets or exceeds 10% for C=C(Cn1c2c(c3cc(C)ccc31)C1CCN(C2)C1)c1ccc(F)cc1 (centres unmarked) [Compound 3]
**A:** T
